test system: Escherichia coli TOP10; assay: shrunken log2 fold change of peptide-encoding DNA abundance (4.5 h post-induction vs induction); higher = less antimicrobial activity (less host growth inhibition); conditions: time post-induction: 4.5 h; library: site-saturation at positions 5, 18, 19, 20
Assign shrunken log2 fold change to each entry below.
Give bare numbers.

Observe how each entry below is paired with its result.
RRIRHRPPRLPRPRPRPTFGPRP 0.0378
RRIRTRPPRLPRPRPRPSRWPRP 0.0135
RRIRKRPPRLPRPRPRPHARPRP 0.709
RRIRDRPPRLPRPRPRPGAEPRP 1.08
RRIRIRPPRLPRPRPRPYPMPRP -0.0519

List shrunken log2 fold change for every entry below, keeping the order given.
1. RRIRGRPPRLPRPRPRPAKRPRP
2. RRIRPRPPRLPRPRPRPQVDPRP
3. RRIRIRPPRLPRPRPRPLDLPRP
4. RRIRARPPRLPRPRPRPVMFPRP
5. RRIRFRPPRLPRPRPRPTQGPRP
6. RRIRSRPPRLPRPRPRPFTQPRP

A:
1: 0.504; 2: -0.0328; 3: -0.415; 4: 0.283; 5: 0.215; 6: -0.403

List shrunken log2 fold change for every entry below, keeping the order given.
1. RRIRRRPPRLPRPRPRPDNNPRP
2. RRIRERPPRLPRPRPRPDAVPRP
3. RRIRYRPPRLPRPRPRPYMDPRP
4. RRIRQRPPRLPRPRPRPRPWPRP

A:
-0.187
-0.0146
-0.14
0.858

====

system: Escherichia coli TOP10; test: shrunken log2 fold change of peptide-encoding DNA abundance (4.5 h post-induction vs induction); higher = less antimicrobial activity (less host growth inhibition); conditions: time post-induction: 4.5 h; library: site-saturation at positions 5, 18, 19, 20
RECORDED METRIC: shrunken log2 fold change

Observe how each entry below is paired with its result.
RRIRPRPPRLPRPRPRPLSFPRP -0.132
RRIRVRPPRLPRPRPRPFPNPRP 0.038
RRIRCRPPRLPRPRPRPVTNPRP -0.0299
RRIRIRPPRLPRPRPRPHTLPRP -0.436
RRIRCRPPRLPRPRPRPYNNPRP -1.23

List shrunken log2 fold change for every entry below, keeping the order given.
1. RRIRDRPPRLPRPRPRPNFEPRP
2. RRIRWRPPRLPRPRPRPPRFPRP
3. RRIRWRPPRLPRPRPRPQTEPRP
4. RRIRIRPPRLPRPRPRPWWHPRP
5. RRIRGRPPRLPRPRPRPDRNPRP
6. RRIRARPPRLPRPRPRPKGEPRP
7. RRIRNRPPRLPRPRPRPTFLPRP

A:
[0.282, 0.326, 0.0468, -0.218, 0.0753, 0.556, -0.272]

====

test system: Escherichia coli TOP10; assay: shrunken log2 fold change of peptide-encoding DNA abundance (4.5 h post-induction vs induction); higher = less antimicrobial activity (less host growth inhibition); details: time post-induction: 4.5 h; library: site-saturation at positions 5, 18, 19, 20
RECORDED METRIC: shrunken log2 fold change
Give bare numbers.

Observe how each entry below is paired with its result.
RRIRGRPPRLPRPRPRPTVIPRP 0.107
RRIRPRPPRLPRPRPRPEYTPRP -0.0863
RRIRDRPPRLPRPRPRPQLDPRP 0.207
RRIRIRPPRLPRPRPRPLHLPRP -1.08
RRIRCRPPRLPRPRPRPLWCPRP -0.208
RRIRYRPPRLPRPRPRPFQKPRP -0.0884
RRIRRRPPRLPRPRPRPWAKPRP 0.0786

Continue with the next sequence.
Q: Request: shrunken log2 fold change, test system Escherichia coli TOP10, entry "RRIRLRPPRLPRPRPRPIKPPRP"
A: 0.0261

====

system: Escherichia coli TOP10; test: shrunken log2 fold change of peptide-encoding DNA abundance (4.5 h post-induction vs induction); higher = less antimicrobial activity (less host growth inhibition); conditions: time post-induction: 4.5 h; library: site-saturation at positions 5, 18, 19, 20
RECORDED METRIC: shrunken log2 fold change
Answers are plain numbers.

Observe how each entry below is paired with its result.
RRIRNRPPRLPRPRPRPESKPRP -0.0938
RRIRLRPPRLPRPRPRPTTNPRP -0.0886
RRIRARPPRLPRPRPRPYLSPRP -0.451
RRIRPRPPRLPRPRPRPQVFPRP 0.0117
RRIRLRPPRLPRPRPRPHGSPRP -0.0692

List shrunken log2 fold change for every entry below, keeping the order given.
1. RRIRYRPPRLPRPRPRPMKTPRP
2. RRIRKRPPRLPRPRPRPWTDPRP
3. RRIRHRPPRLPRPRPRPANHPRP
4. RRIRNRPPRLPRPRPRPQADPRP
5. RRIRSRPPRLPRPRPRPFNCPRP
6. RRIRYRPPRLPRPRPRPNDLPRP

A:
1. -0.0156
2. -0.00992
3. -0.262
4. -0.0176
5. -0.441
6. 0.018

List shrunken log2 fold change for every entry below, keeping the order given.
1. RRIRHRPPRLPRPRPRPDIKPRP
2. RRIRSRPPRLPRPRPRPHAFPRP
3. RRIRQRPPRLPRPRPRPKWCPRP

A:
-0.559
-1.44
-0.0936

Q: Endpoint output: shrunken log2 fold change of "RRIRGRPPRLPRPRPRPYWEPRP" . Value?
A: -0.0842

====

system: Escherichia coli TOP10; experiment: shrunken log2 fold change of peptide-encoding DNA abundance (4.5 h post-induction vs induction); higher = less antimicrobial activity (less host growth inhibition); settings: time post-induction: 4.5 h; library: site-saturation at positions 5, 18, 19, 20
RECORDED METRIC: shrunken log2 fold change
Give bare numbers.

Observe how each entry below is paired with its result.
RRIRKRPPRLPRPRPRPVYFPRP -0.181
RRIRSRPPRLPRPRPRPLVFPRP -0.0421
RRIRERPPRLPRPRPRPYIDPRP -1.51
RRIRRRPPRLPRPRPRPNMWPRP -0.253
RRIRIRPPRLPRPRPRPHTEPRP 0.0578

List shrunken log2 fold change for every entry below, keeping the order given.
1. RRIRHRPPRLPRPRPRPRTMPRP
2. RRIRYRPPRLPRPRPRPAHYPRP
3. RRIRCRPPRLPRPRPRPFTFPRP
4. RRIRLRPPRLPRPRPRPMTTPRP
5. RRIRARPPRLPRPRPRPASFPRP
6. RRIRLRPPRLPRPRPRPQGSPRP

A:
1: -0.0671; 2: -0.18; 3: -0.351; 4: 0.0748; 5: 0.387; 6: -0.0921

====

tested on: Escherichia coli TOP10; test: shrunken log2 fold change of peptide-encoding DNA abundance (4.5 h post-induction vs induction); higher = less antimicrobial activity (less host growth inhibition); details: time post-induction: 4.5 h; library: site-saturation at positions 5, 18, 19, 20
RECORDED METRIC: shrunken log2 fold change
Give bare numbers.

Observe how each entry below is paired with its result.
RRIRIRPPRLPRPRPRPWMYPRP -0.184
RRIRQRPPRLPRPRPRPSEPPRP 0.0286
RRIRPRPPRLPRPRPRPYSVPRP -1.01
RRIRSRPPRLPRPRPRPPLRPRP 0.249
RRIRPRPPRLPRPRPRPWFCPRP 0.138
RRIRGRPPRLPRPRPRPQEWPRP 0.12
RRIRERPPRLPRPRPRPTWRPRP 0.268
RRIRERPPRLPRPRPRPWCAPRP -0.158

List shrunken log2 fold change for every entry below, keeping the order given.
1. RRIRARPPRLPRPRPRPYTFPRP
2. RRIRHRPPRLPRPRPRPESSPRP

A:
1: -0.444; 2: 0.087

====

Assign shrunken log2 fold change to each entry below.
test system: Escherichia coli TOP10; experiment: shrunken log2 fold change of peptide-encoding DNA abundance (4.5 h post-induction vs induction); higher = less antimicrobial activity (less host growth inhibition); conditions: time post-induction: 4.5 h; library: site-saturation at positions 5, 18, 19, 20
Give bare numbers.

List shrunken log2 fold change for every entry below, keeping the order given.
1. RRIRCRPPRLPRPRPRPHFDPRP
2. RRIRMRPPRLPRPRPRPQCQPRP
3. RRIRHRPPRLPRPRPRPPIEPRP
4. RRIRVRPPRLPRPRPRPVHLPRP
5. RRIRVRPPRLPRPRPRPTHMPRP
6. RRIRLRPPRLPRPRPRPHMQPRP
7. RRIRLRPPRLPRPRPRPKGQPRP

A:
0.0458
-0.0148
-0.809
0.0586
0.0408
-0.556
-0.11

Q: Endpoint output: shrunken log2 fold change of "RRIRYRPPRLPRPRPRPFSAPRP" . Value?
A: -1.07

====

tested on: Escherichia coli TOP10; test: shrunken log2 fold change of peptide-encoding DNA abundance (4.5 h post-induction vs induction); higher = less antimicrobial activity (less host growth inhibition); details: time post-induction: 4.5 h; library: site-saturation at positions 5, 18, 19, 20;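 note: peptides expressed intracellularly from a pBAD plasmid library in pooled LB shake-flask culture, induced with 0.3% L-arabinose, DNA abundance read by NGS, three biological replicates, DESeq2 with apeglm shrinkage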
RECORDED METRIC: shrunken log2 fold change
Numbers only.

Observe how each entry below is paired with its result.
RRIRVRPPRLPRPRPRPITEPRP -0.0116
RRIRERPPRLPRPRPRPRWFPRP 0.0416
RRIRNRPPRLPRPRPRPMLMPRP -0.0217
RRIRPRPPRLPRPRPRPFLQPRP -0.207
RRIRPRPPRLPRPRPRPQVEPRP 0.102

List shrunken log2 fold change for every entry below, keeping the order given.
1. RRIRERPPRLPRPRPRPCPAPRP
2. RRIRCRPPRLPRPRPRPHDWPRP
3. RRIRVRPPRLPRPRPRPESWPRP

A:
1. -0.224
2. 0.112
3. 0.28
